system_tested: Protease, CTSG (Cathepsin G) (Homo sapiens, UniProt P08311)
Sequence (P08311 21-255): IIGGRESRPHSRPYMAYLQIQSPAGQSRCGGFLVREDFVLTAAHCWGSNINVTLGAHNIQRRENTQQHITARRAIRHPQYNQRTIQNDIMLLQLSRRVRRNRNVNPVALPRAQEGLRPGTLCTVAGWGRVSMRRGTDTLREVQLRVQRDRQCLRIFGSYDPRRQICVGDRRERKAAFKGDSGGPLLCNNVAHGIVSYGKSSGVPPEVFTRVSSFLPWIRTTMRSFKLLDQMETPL
measurement_protocol: Protease, CTSG (Cathepsin G) inhibition assay
Assay type: biochemical
measurement_parameters: reference compound, concurrent run; read-out: Concurrent MIC IC50
quantity_kind: pIC50
The value called pIC50 is obtained by taking minus log10 of the concentration in mol/L.

Query string: // lookup pIC50 for CC(C)C[C@H](NC(=O)[C@@H](NC(=O)N[C@@H](Cc1ccccc1)C(=O)O)[C@@H]1CCN=C(N)N1)C(=O)N[C@H](C=O)Cc1ccccc1 [Chumostatin]
Result string: 5.91
